- Test system: CAPAN-1
- experimental details: Cytotoxicity of compound was tested against Capan-1 cell line (pancreatic carcinoma) after incubation for 24 hour
- Format: functional, cell-based
- test settings: Homo sapiens, CAPAN-1, 24 h
quantity name: IC50 (nM)
The answer is to be given in nM; state only the numeric part.

GET /values?readout=IC50&item= COc1cccc2c1C(=O)c1c(O)c3c(c(O)c1C2=O)C[C@@](O)(C(C)=O)C[C@@H]3O[C@H]1C[C@H](N)[C@H](O)[C@H](C)O1.Cl [DAUNORUBICIN HYDROCHLORIDE] 390

====

- System: MOLT-4
- experimental details: Cytotoxicity of compound was tested against Molt-4 cell line (T-cell leukemia) after incubation for 24 hour
- Assay type: functional, cell-based
- test settings: Homo sapiens, MOLT-4, 24 h
quantity name: pIC50
Please keep in mind that pIC50 is minus log10 of the molar concentration; only the number is needed.

GET /values?readout=pIC50&item= COc1cccc2c1C(=O)c1c(O)c3c(c(O)c1C2=O)C[C@@](O)(C(C)=O)C[C@@H]3O[C@H]1C[C@H](N)[C@H](O)[C@H](C)O1.Cl [DAUNORUBICIN HYDROCHLORIDE] 9.00
